biological target: T1, cSNK:BSA conjugate (bovine, head-to-tail cyclized; conjugated to BSA carrier); experiment: BLI 2:1 fit, site 2 (kon2); 50 nM row
T1 construct: also called BSA-cSNK
T1 sequence (P02769 25-607 limits assumed): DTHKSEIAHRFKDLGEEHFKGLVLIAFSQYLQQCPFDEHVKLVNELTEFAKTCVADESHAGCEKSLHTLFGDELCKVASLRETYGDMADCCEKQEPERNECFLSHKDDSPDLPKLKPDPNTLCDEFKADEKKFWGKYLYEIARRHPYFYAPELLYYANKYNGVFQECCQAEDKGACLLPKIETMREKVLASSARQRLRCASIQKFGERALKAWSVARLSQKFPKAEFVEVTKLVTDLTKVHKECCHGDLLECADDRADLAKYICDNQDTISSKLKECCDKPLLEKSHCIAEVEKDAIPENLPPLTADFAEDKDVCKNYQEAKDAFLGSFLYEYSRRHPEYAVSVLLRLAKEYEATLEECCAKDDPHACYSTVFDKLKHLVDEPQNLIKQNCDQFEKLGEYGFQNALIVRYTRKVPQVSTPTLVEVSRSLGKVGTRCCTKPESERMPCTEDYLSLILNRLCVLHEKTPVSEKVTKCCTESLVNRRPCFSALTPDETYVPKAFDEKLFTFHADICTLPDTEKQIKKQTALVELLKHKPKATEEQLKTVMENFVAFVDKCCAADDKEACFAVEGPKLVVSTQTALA
recordedEndpoint: kon (M⁻¹ s⁻¹)
The reply should contain only the number, in M⁻¹ s⁻¹.

Example entries begin here.
hu5E3-IgG2 (antibody, V domains shown, human IgG2/kappa; also called humanized 5E3 IgG2) VH: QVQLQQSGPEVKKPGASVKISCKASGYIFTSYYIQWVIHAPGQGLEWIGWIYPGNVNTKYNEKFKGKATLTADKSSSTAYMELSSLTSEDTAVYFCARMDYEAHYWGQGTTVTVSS VL: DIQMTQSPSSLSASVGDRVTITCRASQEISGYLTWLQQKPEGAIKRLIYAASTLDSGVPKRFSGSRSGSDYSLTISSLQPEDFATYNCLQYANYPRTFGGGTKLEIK: 5.28e+06
hu5E3-IgG4 (antibody, V domains shown, human IgG4/kappa; also called humanized 5E3 IgG4) VH: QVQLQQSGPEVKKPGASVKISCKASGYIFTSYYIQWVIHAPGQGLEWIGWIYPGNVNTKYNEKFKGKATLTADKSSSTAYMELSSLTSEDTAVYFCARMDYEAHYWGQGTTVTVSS VL: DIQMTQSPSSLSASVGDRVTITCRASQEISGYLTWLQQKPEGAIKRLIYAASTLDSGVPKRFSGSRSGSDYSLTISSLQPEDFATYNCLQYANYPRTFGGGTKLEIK: 7.52e+06

Query binder follows.
Asked: State its kon for this binder: hu5E3-IgG1 (antibody, V domains shown, human IgG1/kappa; also called humanized 5E3 IgG1; IHA variant) VH: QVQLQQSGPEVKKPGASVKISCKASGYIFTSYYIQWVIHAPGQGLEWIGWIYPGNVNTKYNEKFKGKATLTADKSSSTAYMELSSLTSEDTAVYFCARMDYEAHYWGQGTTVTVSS VL: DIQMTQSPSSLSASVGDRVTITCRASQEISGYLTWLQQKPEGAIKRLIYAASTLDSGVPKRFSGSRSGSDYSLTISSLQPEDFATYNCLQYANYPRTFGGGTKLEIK
Given back: 6.56e+06
